Listed below: GI50 values for each entry.
- Test system: COLO 205
- procedure-text: NCI tumour cell line growth inhibition, 48 h
Activity calls are given as the source filed them. Cut-off read from the data, not from the text of the source: active = GI50 up to about 1.1 µM and inactive = higher.

Worked examples follow.
1. CCOC(=O)N/N=C(\Cc1ccccc1)OCC: > 100 µM (inactive)
2. [O-]c1c2c(nn1-c1ccc(F)cc1)c1ccccc1c[n+]2Cc1ccccc1: 1.76 µM (inactive)
3. CC(C)OP(=O)(CCCCCCCCC/C=C/c1ccc2c(c1)OCCOCCOCCOCCO2)OC(C)C: 1.99 µM (inactive)
4. O=C(/C=C/c1csc(-c2ccccc2)n1)NCc1ccc(C(=O)NCc2ccccc2)cc1: > 100 µM (inactive)
5. O=C1C=CC[C@H](/C=C/C[C@@H](O)C[C@H](O)/C=C/c2ccccc2)O1: 7.87 µM (inactive)

GI50 for Cc1ccc(-c2c(C#N)c(O)n(NS(=O)(=O)c3ccccc3)c(=O)c2C#N)cc1 ? > 100 µM (inactive)

GI50 for Cc1nc2nnc(CCCCCCCCc3nnc4nc(C)[nH]n34)n2[nH]1 ? > 100 µM (inactive)

GI50 for O=C(/C=C/c1ccccc1)c1ccccc1 ? > 10 µM (inactive)

GI50 for O=[N+]([O-])c1ccc(-c2ccc(-c3csc(Nc4ccccn4)n3)o2)cc1 ? > 100 µM (inactive)

GI50 for O=C(N/N=C/c1ccc(O)cc1)NNCCO ? > 100 µM (inactive)

###

- Test system: SF-539
- procedure-text: NCI tumour cell line growth inhibition, 48 h
Activity calls are given as the source filed them. No stated cut-off is given here; in the data, active = GI50 up to about 1.1 µM and inactive = higher.
Can you answer with just one of these options? active, inactive

Use the examples below as a reference point.
1. O=C1c2ccccc2C(=O)c2c1oc1cc(O)c(Cl)cc21: inactive
2. CCSC(=O)N1c2ccc(OC)cc2C=CC1C#N (stereo not drawn): active
3. CO[C@@H]1C[C@H]2[C@@H]3CC[C@H]([C@H](C)CO)[C@@]3(C)CC[C@@H]2[C@@]2(C)CC[C@H]3C[C@]312: inactive
4. Cn1c2c3ccc(Cl)cc3nc-2c(Cl)c2ccccc21: inactive
5. O=C1CS(=O)(=O)C(c2cccc(Oc3ccccc3)c2)N1c1ccccc1 (stereo not drawn): inactive

Recorded call for Nc1nc2[nH]c(=O)cnc2c(=O)[nH]1 ? inactive

Recorded call for CCOC(=O)[C@@]12C(C)=CC(=O)O[C@]1(C)C[C@H]2C#N ? inactive

Recorded call for Cc1ccc([N+](=O)[O-])cc1S(=O)(=O)Nc1ccc(C2=NOC(c3ccccc3)C2)cc1 (stereo not drawn) ? inactive

###

- Test system: SW-620
- procedure-text: NCI tumour cell line growth inhibition, 48 h
The source made the active and inactive calls. Cut-off read from the data, not from the text of the source: active = GI50 up to about 1.1 µM and inactive = higher.
Can you answer with just one of these options? active, inactive

Use the examples below as a reference point.
1) CC[C@@H](C)[C@H]([C@H](CC(=O)N1CCC[C@@H]1[C@@H](OC)[C@H](C)C(=O)N[C@H](Cc1ccccc1)c1nccs1)OC)N(C)C(=O)[C@H](NC(=O)[C@@H](C(C)C)N(C)C)C(C)C: active
2) O=c1ccc2ccccc2c2ccccc12: inactive
3) O=C1N=C(c2ccccc2)OC1C(=O)c1ccccc1 (stereo not given): inactive
4) O=C1CC(CC(O)[C@@H]2CCCC[C@@H]2O)CC(=O)N1c1ccccc1 (stereo not given in full): inactive
5) COc1ccc(/C=C2\CCCC(CN(C)C)C2=O)cc1 (stereo not given): active
6) NNC(=O)c1c(SCc2ccccc2)nc2c3ccccc3ccn12: inactive

Recorded call for O=C(c1ccccc1)c1nnn(Cc2cccc(Cl)c2)c1C(=O)c1ccccc1 ? inactive

Recorded call for CN(CCNC(=O)c1c[nH]c2c1Cc1ccccc1-2)CCNC(=O)c1c[nH]c2c1Cc1ccccc1-2 ? inactive

Recorded call for COc1ccc2c(c1)C(=O)CC1c3cnccc3C(=O)N21 (stereo not given) ? inactive

Recorded call for CCC/C=C/c1cc2c(cc1O)CC[C@@H]1[C@@H]2CC[C@]2(C)[C@@H](O)CC[C@@H]12 ? inactive

###

- System: HT-29
- procedure-text: NCI tumour cell line growth inhibition, 48 h
The source made the active and inactive calls. No stated cut-off is given here; in the data, active = GI50 up to about 1.1 µM and inactive = higher.
measured-endpoint: GI50

Worked examples follow.
1) CC1(c2nc3cc(Cl)c(Cl)cc3[nH]2)CCC(CO)C(C)(C)O1 (configuration not stated): 16.4 µM (inactive)
2) O=C(N/N=C/c1ccc(O)cc1)NNCCO: > 100 µM (inactive)
3) C=C(Br)CN(C#N)CC(=C)Br: > 100 µM (inactive)
4) COc1cc2c(cc1C1COc3cc4occc4cc3C1=O)OCO2 (configuration not stated): 41.2 µM (inactive)

GI50 for Nc1ccc(Cn2ccc3c4c(N)nc(N)nc4ccc32)cc1 ? < 0.01 µM (active)

GI50 for COc1ccc(/C(CC2OC(=O)c3ccccc32)=N\NC(=O)C[N+](C)(C)C)cc1 (configuration not stated) ? 19.2 µM (inactive)

GI50 for COc1cc(NP(=O)(Oc2ccccc2)Oc2ccccc2)ccc1Nc1c2ccccc2nc2c1[nH]c1ccccc12 ? 0.953 µM (active)

GI50 for Cc1c2c(OCC(O)CN3CCN(c4ccccc4)CC3)nn(C)c(=O)c2c(C)n1-c1ccccc1 (configuration not stated) ? 22.7 µM (inactive)

GI50 for Cc1ccc(C2=Nn3c(nc4sc(C)c(C)c4c3=O)SC2)cc1 ? > 100 µM (inactive)

GI50 for NC(CCCCNC(=O)C(Cc1ccccc1)NC(=O)OCc1ccccc1)C(=O)NC(CCCCNC(=O)C(Cc1ccccc1)NC(=O)OCc1ccccc1)C(=O)NC(CCCCNC(=O)C(Cc1ccccc1)NC(=O)OCc1ccccc1)C(=O)NC(CCCCNC(=O)C(Cc1ccccc1)NC(=O)OCc1ccccc1)C(=O)NC(CCCCNC(=O)C(Cc1ccccc1)NC(=O)OCc1ccccc1)C(=O)NC(CCCCNC(=O)C(Cc1ccccc1)NC(=O)OCc1ccccc1)C(=O)O (configuration not stated) ? > 100 µM (inactive)

GI50 for Cc1ccc([N+](=O)[O-])cc1S(=O)(=O)Nc1ccc(C2=NOC(c3ccccc3)C2)cc1 (configuration not stated) ? 6.78 µM (inactive)

GI50 for O=C1/C(=C/c2cccc([N+](=O)[O-])c2)N=C(c2ccccc2)N1c1nc2ccc(Sc3ccccc3)cc2[nH]1 ? 45.2 µM (inactive)

###

- System: HCT-15
Listed below: GI50 values for each entry.
Please respond with the number in µM and leave the unit unwritten.

1. COC(=O)/C(C)=C/[N+](=O)[O-]: 13.5
2. Cc1c2c(OCC(O)CN3CCN(c4ccccc4)CC3)nn(C)c(=O)c2c(C)n1-c1ccccc1 (centres undefined): 20.3
3. CCOCC(=O)N[C@H]1CCc2cc(OC(=O)COCC)c(OC)c(OC)c2-c2ccc(SC)c(=O)cc21: 0.0551
4. O=S(=O)(SC1=NCCN1)c1cccc2ccccc12: 35.3
5. C/C=C1/CN2CC[C@@H]3c4ccccc4N4[C@H](C(=O)OC)[C@H]1C[C@H]2[C@]34/C=C/C1=COC[C@@H]2[C@H]1C[C@H]1c3c(c4ccccc4n3C)C[C@@H]2N1C: 4.14
6. O=C1c2ccc3cc(CCl)cc(O)c3c2C(=O)c2cccc(O)c21: 1.1
7. O=C(N/N=C/c1cc(Cl)cc(Cl)c1O)c1ccncc1: 29.7
8. CC(=O)OCC1OC(N2C(C)=C(C(C)=O)C(c3ccc(Cl)cc3)C(C#N)=C2S)C(OC(C)=O)C(OC(C)=O)C1OC(C)=O (centres undefined): 41.3

Which GI50 is reported with HCT-15 for this entry: OC(Cc1ccccc1)(Cc1ccccc1)c1ccccc1 ? 20.5

###

- System: MDA-N
- procedure-text: NCI tumour cell line growth inhibition, 48 h
Activity calls are given as the source filed them. No stated cut-off is given here; in the data, active = GI50 up to about 1.1 µM and inactive = higher.
measured-endpoint: GI50

1. N#CCc1nc(Cc2ccccc2)n[nH]1: > 100 µM (inactive)

Now turn to the next compound.
Which GI50 is reported with MDA-N for this entry: O=C1/C(=C/c2cccc([N+](=O)[O-])c2)N=C(c2ccccc2)N1c1nc2ccc(Sc3ccccc3)cc2[nH]1 ? 14.9 µM (inactive)

###

- Test system: LOX IMVI
- procedure-text: NCI tumour cell line growth inhibition, 48 h
Calls of active or inactive are those of the source. Cut-off read from the data, not from the text of the source: active = GI50 up to about 1.1 µM and inactive = higher.
Can you answer with just one of these options? active, inactive

1. COc1ccc2c(c1)CC[C@@H]1[C@@H]2CC[C@]2(C)/C(=N/OCCN3CCCCC3)CC[C@@H]12: inactive

Recorded call for COc1ccc(/C=C2\CCCC(CN(C)C)C2=O)cc1 (stereo not given) ? inactive

Recorded call for CC(=O)Oc1ccn2nc(C)c(Cc3c(C)nn4ccc(OC(C)=O)cc34)c2c1 ? inactive

Recorded call for O=C(Nc1cccc([N+](=O)[O-])c1)c1nnn(-c2cccc([N+](=O)[O-])c2)c1O ? inactive

Recorded call for Cc1ccc2c(c1)CN1c3ccc(C)cc3CN2C1c1ccccc1O ? inactive

Recorded call for CCOC(=O)C(=[N+]=[N-])C(=O)CSC#N ? inactive

Recorded call for O=c1[nH]c(=O)n(C2CC(O)C(CO)O2)cc1C#Cc1ccc(C(F)(F)F)cc1 (stereo not given) ? inactive

Recorded call for O=C(O)CNCP(=O)(O)O [GLYPHOSATE] ? inactive

Recorded call for Nc1nc(N)c(-c2ccccc2)c(C(=O)Nc2ccc(Cl)c(Cl)c2)n1 ? inactive

Recorded call for OC(Cc1ccccc1)(Cc1ccccc1)c1ccccc1 ? inactive

Recorded call for CC(=O)O[C@H]1CC[C@@]2(C)C(=CC[C@@H]3[C@@H]2CC[C@]2(C)c4c(C)n[nH]c4C[C@@H]32)C1 ? inactive

Recorded call for COc1ccc(C2CC(C)=Nc3c(O)nc(S)nc3N2)cc1 (stereo not given) ? inactive

Recorded call for CN(C)CCN(C)CC1COC(C)(C)O1 (stereo not given) ? inactive

Recorded call for CCOC(=O)[C@@]12C[C@](/C=C/OC)(O[Si](C)(C)C)[C@@]13c1cc(OC)c(OC)cc1CCN3C(=O)C2=O ? inactive

Recorded call for O=C(N/N=C/c1cc(Cl)cc(Cl)c1O)c1ccncc1 ? inactive

Recorded call for C[C@@H]1CCC([C@@H](C)[C@H]2CC[C@H]3[C@@H]4CC[C@H]5C[C@@H](O)CC[C@]5(C)[C@H]4CC[C@]23C)=NC1 ? inactive

Recorded call for CSc1ccc(-c2cc(-c3nc4ccccc4[nH]3)no2)cc1 ? inactive

Recorded call for COC[C@@H]1[C@H]2OC(C)(C)O[C@H]2C(=O)N1C(=O)c1ccc(OC)cc1 ? inactive

Recorded call for COc1cc2c3c(cc(Cl)nc3c1OC)C(=O)C(=O)N2 ? inactive

Recorded call for O=C(Nc1ccccc1-c1n[nH]c(S)nc1=O)C(F)(F)F ? inactive

Recorded call for O=C1C(c2ccccc2)=C(c2ccccc2)C(c2ccc(-c3ccc(C4=C(c5ccccc5)C(=O)C(c5ccccc5)=C4c4ccccc4)cc3)cc2)=C1c1ccccc1 ? inactive

Recorded call for CCOC(=O)/N=C(\N)SCc1ccccc1 ? inactive
